Cited source for all entries: PubChem BioAssay (NCI)

# Tested on: SR leukemia
# Experimental details: NCI tumour cell line growth inhibition, 48 h
Outcome measure: TGI

Use the examples below as a reference point.
{"Compound": "O=c1c2ccccc2nc2n1CCc1c-2[nH]c2ccccc12", "Recorded measurement": "> 100 µM"}
{"Compound": "CNS(=O)(=O)NNS(=O)(=O)c1ccc(C)cc1", "Recorded measurement": "> 100 µM"}
{"Compound": "CCc1nc(N)nc(N)c1-c1ccc(N2CCOCC2)c(N=[N+]=[N-])c1", "Recorded measurement": "> 80.9 µM"}
{"Compound": "COC(=O)C1CC(=O)O[C@H]1c1ccc(OC)c(OC)c1 (stereo not given in full)", "Recorded measurement": "> 100 µM"}

In the following, a different compound is considered.
QUERY: Which measured TGI value corresponds to COc1ccc2cc3n(c(=O)c2c1)CCc1c-3cc(OC)c(OC)c1OC ?
RESULT: > 100 µM

---

# System: CCRF-CEM leukemia
# Experimental details: NCI tumour cell line growth inhibition, 48 h
Outcome measure: TGI

See these solved cases before continuing.
{"Compound": "CC(C)(C)C1CCC(O)(c2ccccc2)CC1 (stereo not given)", "Outcome measure": "TGI", "Recorded measurement": "> 100 µM"}
{"Compound": "N#CCc1nc(-c2cc3ccccc3oc2=O)cs1", "Outcome measure": "TGI", "Recorded measurement": "> 100 µM"}
{"Compound": "COC(=O)C(C)NP(=O)(OCc1cccc(Cn2cnc3c(N)ncnc32)c1)Oc1ccccc1 (stereo not given)", "Outcome measure": "TGI", "Recorded measurement": "> 100 µM"}
{"Compound": "C[C@H]1CCC/C=C/[C@@H]2C[C@H](OC(=O)CN(C)C)C[C@H]2[C@H](O)/C=C/C(=O)O1", "Outcome measure": "TGI", "Recorded measurement": "> 100 µM"}

QUERY: Requested read-out: TGI. Entry: O=C(NC1CCCCC1)c1n[nH]nc1Cl
RESULT: > 100 µM

QUERY: Follow-up entry: CC(C)c1ccc2c(c1)CCC1C2CCCC1(C)NCc1ccccc1 (stereo not given)
RESULT: 27.9 µM

---

# Tested on: PC-3 prostate
# Experimental details: NCI tumour cell line growth inhibition, 48 h
# TGI values compiled below

Example cases with answers are listed next.
{"Compound": "CNS(=O)(=O)Nc1nccc(Cc2c(C)c3ccc(Oc4ncccn4)cc3oc2=O)c1F", "TGI": "> 100 µM"}
{"Compound": "O=c1oc2ccccc2c(-c2ccc(O)cc2)c1Oc1ccccc1", "TGI": "> 96.1 µM"}
{"Compound": "O[C@@H]1[C@H](OC2c3ccccc3-c3ccccc32)[C@H](OCc2ccccc2)[C@@H]2OC[C@H]1O2", "TGI": "> 100 µM"}

QUERY: Given the compound O=C(CC1(O)C(=O)Nc2c(Cl)cc(Cl)cc21)c1cccc([N+](=O)[O-])c1 (stereo unspecified) , what is its reported TGI?
RESULT: > 100 µM

QUERY: Also C=CCN(CC=C)Cc1c[nH]c2ccccc12 ?
RESULT: > 100 µM

QUERY: Further, for CCN(C(=O)N[C@@H](CC(C)C)C(=O)NCC(=O)OC)c1ccccc1 ?
RESULT: > 100 µM

---

# Test system: SN12C renal
# Experimental details: NCI tumour cell line growth inhibition, 48 h; in the data active means GI50 below about 0.43 µM; inactive means the rest
Bench note: report the call from active, inactive

Field: example entries. Status: answers known.
{"Smiles representation": "CNCc1cccc2c1OCCOCCOCCNS(=O)(=O)c1ccc(cc1)-c1cnc(N)c(n1)C(=O)N2", "Group label": "inactive"}
{"Smiles representation": "C#CCCCCCC(=O)N[C@H]1C=C[C@@H]2/C=C(C)/C=C/[C@@H](C)[C@H]([C@H](C)[C@H](O)[C@@H](C)NC(C)=O)OC(=O)/C=C/C=C(C)\\C=C\\[C@]2(C)C1", "Group label": "active"}

Now consider a different compound.
QUERY: Query: recorded result category for COc1ccc([C@@H]2[C@@H](Oc3ccccc3)C(=O)N2c2cc(OC)c(OC)c(OC)c2)cc1F in this test
RESULT: active
